The reported numbers originate from the supplement of paper PMC9170038.

I'd be grateful if you could share measured apparent KD of MS2 coat protein for these entries.
- Test system: MS2 coat protein
- Assay explanation: apparent KD of MS2 coat protein; higher = weaker reporter binding
- Condition notes: Eterna round: R107; input ligand: none
Include the unit after the number when you answer.

For the record GGACUAACCAGAAGGAGCGACACAAGCAGAAACUGCAAUCCUCCGCACGAGGAUCACCCGUGUCAGGUAGGUCGCUGGUUAGUCG [ArgBX 28] , what value of apparent KD of MS2 coat protein is listed for MS2 coat protein? 63.7 nM

Give apparent KD of MS2 coat protein (MS2 coat protein) of the following sequence: `AGAAAGAAACAAAACUCAAGGAGAACCGAAGGAGCGGCGAAAGAGCCAGGUAGGUCGCGGUCCUCAACAUGAGGAUCACCCAUGU` 104 nM

What apparent KD of MS2 coat protein appears in the records for this sequence with MS2 coat protein? GCUGCCAUACGAAGGAGCGCUGUUGCAAUGAGGCGAACAUGAGGAUCACCCAUGUGGCAAAAGCAGGUAGGUCGCGUAUGGCAGC [EAB #17] 20.5 nM

apparent KD of MS2 coat protein of UUCAUGAGGAUUGAUACCAGCCACCAACAUGAGGAACUUACAUGAGGAUCACCCAUGUGAGGCCCUUGGCAGCAAGCAUACAUGA [Exclusion Theophylline B 3] on MS2 coat protein? 10.6 nM

Form: Entry = UGUUUUUAUCGAAGGAGCGCCGCAUGAGGAUCACCCAUGCACAUGAGGAUCACCCAUGUCUGGCAGGUAGGUCGCGAUCAAUGGG [Same State Arginine B GF 11] | System = MS2 coat protein | apparent KD of MS2 coat protein = ____ 41.9 nM

Quick check: apparent KD of MS2 coat protein on MS2 coat protein, item GCGAUGGAGCGAAGGAGCGUGCUAGUACAUGAGGAUCACCCAUGUGAGUCGCAGCGCUAAGCACAGGUAGGUCGCGCUCCAUCGC [EAB NP+V+V2 #12] ? 48.4 nM

---

- Test system: MS2 coat protein
- Assay explanation: apparent KD of MS2 coat protein; designed switch direction (-1 OFF switch, 1 ON switch): -1; higher = weaker reporter binding
- Condition notes: input ligand: microRNA oligo, concentration not stated
Label 1.0 for high-side apparent KD of MS2 coat protein (at or above 30 nM) and 0.0 for low-side apparent KD of MS2 coat protein (below it).

Test whether the sequence CGUCCGAACUCAGGAUAUCAACUUAACAACAUGAGGAUCACCCAUGUGGCCUGUAAAACCCGAGAUGAGAAGGGAGGGCGGGCC [Usceondiat] (Eterna round: R96, puzzle: Exclusion NG 2) records apparent KD of MS2 coat protein of 30 nM or higher. 0.0

Determine whether measured apparent KD of MS2 coat protein meets or exceeds 30 nM for AGGUCCUUCUGGAGACAUGAGGAUCACCCAUGUCGAGUCAGCGAGGAUAUCGGUUAAUAAUGUGACGAGAAGGCGCGGACCGAU [Ex NG3 #55] (Eterna round: R96, puzzle: Exclusion NG 3) 0.0

Is apparent KD of MS2 coat protein for CCGGUUGGCGCAGGAUAUACAUGAGGAUCACCCAUGUUCAUGAGGAUCGCCCAUGAGUUUUUGUUGUAGAAGGGUGGCCCGGCC (Eterna round: R96, puzzle: Exclusion NG 2) at or above 30 nM? 1.0

# check: apparent KD of MS2 coat protein of UUGUUAUAUGAAGGAUAUACUUAACAUGAGGAUCACCCAUGUGGUGUUGUGAGUGAGUGAGUUUAGUAGAAGGUCAAUGAUUUU [JMF's solution 73] (Eterna round: R96, puzzle: Exclusion NG 2) is greater than or equal to 30 nM 1.0

Entry UUUUUAUAUGAAGGAUAUACUUAACAUGAGGAUCACCCAUGUGGUGUUGUGAGUGAGUGAGUUUAGUAGAAGGUCAAUUAUCUU [JMF's solution 14] (Eterna round: R96, puzzle: Exclusion NG 2) : is its apparent KD of MS2 coat protein no less than 30 nM? 1.0

Check if apparent KD of MS2 coat protein >= 30 nM (inclusive). Item: GGAUCGAGUGUGAGGAUAUGCUGGUCCUUGGAUCAGCAGAAGGCACAUGAGGAUCACCCAUGUGAAGACGGUCC [JL bmx4 3.16] (Eterna round: R96, puzzle: Brourd's mod of Exclusion 4) 0.0

Form field: apparent KD of MS2 coat protein at least 30 nM? Entry: AUAAAGAACUCAGGAUAUUAGAGAAACGGACAUGAGGAUCACCCAUGUGCGCCUGAUGCCGAGAAUAAGAAGGGAGAAUAGAAA [Rearbi] (Eterna round: R96, puzzle: Exclusion NG 2) 0.0

For this sequence, is measured apparent KD of MS2 coat protein 30 nM or higher? CACCUGAAUACAGGAUAUCCUACAUGAGGAUCACCCAUGUAAUAAAUGAGAAUUUCGAAUGUAAUGGAGAAGGGUAGAUAAGGC [Ostracism 88 - Jieux - Exclusion NG 2] (Eterna round: R96, puzzle: Exclusion NG 2) 1.0

---

For each of the sequences below, state its apparent KD of MS2 coat protein.
- System: MS2 coat protein
- Assay explanation: apparent KD of MS2 coat protein; designed switch direction (-1 OFF switch, 1 ON switch): -1; higher = weaker reporter binding
- Condition notes: input ligand: FMN 200 uM

Given the sequence ACAUGAGGAUCACCCAUGUGACCACGAUGGCUGAUGUAGAGACAGGAUAUGUGUGAAUAUCUAUCACAGAAGGGUCUUGACUGG [Deportation 54 - Jieux - Exclusion NG 3] (Eterna round: R96, puzzle: Exclusion NG 3) , what is its reported apparent KD of MS2 coat protein? 35.3 nM

What does the data say about its apparent KD of MS2 coat protein? Entry: CUCGUGUGAGGAUAUCCUCUUAUAUAACAAAGGUUGAAGCAGGAGAAGGCACAUGAGGAUCACCCAUGUGCAUA [EX4 C.6] (Eterna round: R97, puzzle: Exclusion 4) 46.4 nM

Can you share its apparent KD of MS2 coat protein? I mean this sequence: AAGAAACAUGAGGAUCACCCAUGUGAGGAUAUGGCCCGCCCGGCGUGAGCAAAAUAAAUCAGAAGGCACAAAGG [salish99_ex1_r4_009] (Eterna round: R97, puzzle: Exclusion 1) 41 nM

---

- Tested on: K4 kissing-loop RNA reporter;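 note: bound reporter read as fluorescence of individual clusters on recovered sequencing chips by microscopy, with normalized cluster intensities fitted with a binding model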
- Assay explanation: apparent KD of K4 kissing-loop reporter; higher = weaker reporter binding
- Condition notes: Eterna round: R107; input ligand: FMN 200 uM
Please enter class 1 where apparent KD of K4 kissing-loop reporter is greater than or equal to 400 nM, and class 0 where it is lower.

Hi team, for UACUAUAGUGAUGUUAUAGAUAAACCAGAUACCAGUGUAACAUAACACCCUUGGCAGCUGAUGAGGGAAGAUAUCAAAAGAUAUC [AstroSTH-A#9newdesignED4.70] , is the recorded apparent KD of K4 kissing-loop reporter at or above 400 nM? class 0

In plain terms: is recorded apparent KD of K4 kissing-loop reporter at least 400 nM for AGAGUCAGACAAAAGUCUGGCUCAGCCGAAGGAGCGUCCGAAAGGACAGGUAGGUCGCGGUUGCAUGAGUGAUGUUGAUGUUUUU [KL-SSArg-A23] ? class 1

# bool: apparent KD of K4 kissing-loop reporter of UGUAUGUGAUUUGAUACCAGACCAGCUGGUGGUACCUGAGUGAUGUUCGGGAUGGUCUGGGUCCCUUGGCAGCAAAUCGCAUACU [KL-SSTheoB21] >= 400 nM class 0

Is the recorded value of apparent KD of K4 kissing-loop reporter equal to or greater than 400 nM for this sequence? UUAGUCUAGAGAGGAUAUCAGUGAUGUUGAUAUCAAGAUCUGAGAUAGAAUUCUAUCUCAGAUCAAUGAGAAGGCUCUAGACAUU [AK1.2 Exc FMN B] class 1

Has GUGGCGGGCCAAGGAUAUAUUUUGGAGUGAUGUUGUUCAUUUAUUUGAGCUAGUGAUGUUGGUCGAAUAGAAGGUGGCCCGCCAC [whbob_Ex_FMNB__2th220] a recorded apparent KD of K4 kissing-loop reporter greater than or equal to 400 nM? class 0

Check if apparent KD of K4 kissing-loop reporter >= 400 nM (inclusive). Item: AGAACUGUCUGAGAUACCAGCCAUAGGAGUGAUGUUCCUAGCUCCACAAAGUGGAGCCAUAGCCCUUGGCAGCUCAGACAGUUCA [Omei KL Theo B SS A v7] class 1

For this sequence, is measured apparent KD of K4 kissing-loop reporter 400 nM or higher? UAACGCUGACAGCAACAAUUCGGGCCUGAUACCAGCAAUUUUUCAUGCCCUUGGCAGCAGAGUGAUGUUUUCUGUCUAUUUAGUC [theeternabot_exclusion_KL_Theo_A_23] class 1

Assess whether reported apparent KD of K4 kissing-loop reporter for AGAAACUUGUAUACAGGGCAUGCCAGAGAUACCAGUCAAAUGGAAGGCCCUUGGCAGCUCAGGCGAGUGAUGUUCGCAGGCUGAC [Exclusion Theophylline A GF 20] sits at 400 nM or higher. class 0

Decide: is the reported value of apparent KD of K4 kissing-loop reporter for GCACUCCAUCGGACGUAAGUGAUGUUUACCCGAGGACCGGUACGGCCGCCACUCGACCGUGCAUAACCAAAUCAAAUAGCUUCCG [theeternabot_exclusion_KL_Trp_A_31] equal to or greater than 400 nM? class 0

Determine whether measured apparent KD of K4 kissing-loop reporter meets or exceeds 400 nM for CUCGAGUGAUGUUCGAUUAUUUAUACAGAUACCAGUGAAUUUUAACACCCUUGGCAGCUGGUUGUAUCAUUUUUUUUUACUAAAG [JR_ExcTheophyA_Sub008] class 0

Confirm if apparent KD of K4 kissing-loop reporter reported for the sequence AGCGCUGCCUGAGGAUAUAGAAACGAGUGAUGUUCGUGGAUUGAUACCAGUGAUGUUGGCCUAUUUCUAGAAGGCAGGCGAUCGU [Exclusion FMN B GF2] is 400 nM or above. class 0
